The origin of these recorded values is patent US20250205258A1.

Listing of recorded IC50 by entry.
System: human lung adenocarcinoma cell line A549
Experiment: CCK-8 in vitro antitumor activity (Effect Example 1)
Format: cell-based
Settings: A549, CCK-8, 72 hours
Could you give me the number in µM? Just the number is fine.

cpd smiles	IC50 / µM
CCOP(=O)(CN1CCC(NC(=O)O[C@H]2CC[C@@]3(C)[C@H](CC[C@@H]4[C@@H]3CC[C@]3(C)[C@@H](c5ccc(=O)oc5)CC[C@]43O)C2)CC1)OCC	0.037
CC(C)OP(=O)(CNC1CCN(C(=O)O[C@H]2CC[C@@]3(C)[C@H](CC[C@@H]4[C@@H]3CC[C@]3(C)[C@@H](c5ccc(=O)oc5)CC[C@]43O)C2)CC1)OC(C)C	0.216

Could you now consider this next molecule?
INPUT: Tell me IC50 reported for CC(C)OP(=O)(CN1CC[C@@H](NC(=O)O[C@H]2CC[C@@]3(C)[C@H](CC[C@@H]4[C@@H]3CC[C@]3(C)[C@@H](c5ccc(=O)oc5)CC[C@]43O)C2)[C@H](O)C1)OC(C)C
OUTPUT: 0.015
